System: LHPP gene
ASSAY TEXT: High-throughput screening of saRNAs targeting LHPP promoter: LHPP mRNA by one-step RT-qPCR in Huh7 cells
Assay type: cell-based, human
EXPERIMENTAL CONTEXT: 10 nM saRNA, 72 hours, relative to control (Mock)
d = 2'-deoxy (DNA); r = 2'-OH (RNA)
Recorded measurements of Fold of changes in relative LHPP mRNA expression level, one per entry
OUTCOME MEASURE: Fold of changes in relative LHPP mRNA expression level (fold)

SUBSTANCE	MEASURED NUMBER
RAG7-196: saRNA duplex; sense CAGGUGCCUUCUUGUCUCATT (SEQ ID NO: 38), antisense UGAGACAAGAAGGCACCUGTT (SEQ ID NO: 202) (sugars from the 5' end r19 d2, backbone not given here)	1.45
RAG7-106: saRNA duplex; sense GAAAGCUUCCGAAAAGGACTT (SEQ ID NO: 150), antisense GUCCUUUUCGGAAGCUUUCTT (SEQ ID NO: 314) (sugars from the 5' end r19 d2, backbone not given here)	1.12
RAG7-142: saRNA duplex; sense GCUUUUCCUGCUCUUUGUCTT (SEQ ID NO: 164), antisense GACAAAGAGCAGGAAAAGCTT (SEQ ID NO: 328) (sugars from the 5' end r19 d2, backbone not given here)	1.10
RAG7-898: saRNA duplex; sense AAGCUAUGUUGGACCAGAATT (SEQ ID NO: 59), antisense UUCUGGUCCAACAUAGCUUTT (SEQ ID NO: 223) (sugars from the 5' end r19 d2, backbone not given here)	1.34
RAG7-676: saRNA duplex; sense UCUAUGCAGGGCUGUUAUCTT (SEQ ID NO: 83), antisense GAUAACAGCCCUGCAUAGATT (SEQ ID NO: 247) (sugars from the 5' end r19 d2, backbone not given here)	1.26
RAG7-852: saRNA duplex; sense ACUUGAAAGGUUCCGAGGGTT (SEQ ID NO: 128), antisense CCCUCGGAACCUUUCAAGUTT (SEQ ID NO: 292) (sugars from the 5' end r19 d2, backbone not given here)	1.17
RAG7-686: saRNA duplex; sense UGCAUCCUCAUCUAUGCAGTT (SEQ ID NO: 86), antisense CUGCAUAGAUGAGGAUGCATT (SEQ ID NO: 250) (sugars from the 5' end r19 d2, backbone not given here)	1.25
RAG7-147: saRNA duplex; sense UUUCUGCUUUUCCUGCUCUTT (SEQ ID NO: 66), antisense AGAGCAGGAAAAGCAGAAATT (SEQ ID NO: 230) (sugars from the 5' end r19 d2, backbone not given here)	1.31
RAG7-151: saRNA duplex; sense UUGUUUUCUGCUUUUCCUGTT (SEQ ID NO: 100), antisense CAGGAAAAGCAGAAAACAATT (SEQ ID NO: 264) (sugars from the 5' end r19 d2, backbone not given here)	1.22
RAG7-176: saRNA duplex; sense UUUGCCUUUGACCUUUCUUTT (SEQ ID NO: 110), antisense AAGAAAGGUCAAAGGCAAATT (SEQ ID NO: 274) (sugars from the 5' end r19 d2, backbone not given here)	1.20
RAG7-679: saRNA duplex; sense UCAUCUAUGCAGGGCUGUUTT (SEQ ID NO: 107), antisense AACAGCCCUGCAUAGAUGATT (SEQ ID NO: 271) (sugars from the 5' end r19 d2, backbone not given here)	1.20
RAG7-150: saRNA duplex; sense UGUUUUCUGCUUUUCCUGCTT (SEQ ID NO: 32), antisense GCAGGAAAAGCAGAAAACATT (SEQ ID NO: 196) (sugars from the 5' end r19 d2, backbone not given here)	1.48
RAG7-109: saRNA duplex; sense GAAGAAAGCUUCCGAAAAGTT (SEQ ID NO: 90), antisense CUUUUCGGAAGCUUUCUUCTT (SEQ ID NO: 254) (sugars from the 5' end r19 d2, backbone not given here)	1.24
RAG7-179: saRNA duplex; sense CAAUUUGCCUUUGACCUUUTT (SEQ ID NO: 39), antisense AAAGGUCAAAGGCAAAUUGTT (SEQ ID NO: 203) (sugars from the 5' end r19 d2, backbone not given here)	1.45
RAG7-114: saRNA duplex; sense CCUGGGAAGAAAGCUUCCGTT (SEQ ID NO: 73), antisense CGGAAGCUUUCUUCCCAGGTT (SEQ ID NO: 237) (sugars from the 5' end r19 d2, backbone not given here)	1.28
RAG7-908: saRNA duplex; sense UGAAAGCUCAAAGCUAUGUTT (SEQ ID NO: 31), antisense ACAUAGCUUUGAGCUUUCATT (SEQ ID NO: 195) (sugars from the 5' end r19 d2, backbone not given here)	1.49
